- Tested on: KM12 colon
- protocol_description: NCI tumour cell line growth inhibition, 48 h
property_measured: TGI

Study these solved cases before continuing.
Q. Query TGI for COC(=O)/C(=C/c1ccc(OC)cc1)C(C(=O)O)=C1CCCCC1
A. > 100 µM

Q. Query TGI for Cc1noc(C)c1-c1cnc2c(-c3ccc(C(=O)O)cc3)cn([C@@H](C)c3ccccn3)c2c1
A. > 100 µM

Q. Query TGI for C=C1C(=O)O[C@H]2[C@H]1CC/C(COC(=O)NCCc1cccc(OC)c1)=C\CC[C@@]1(C)O[C@@H]21
A. 15.6 µM

Q. Query TGI for Cn1cncc1-c1c(F)cncc1NC(=O)c1c(N)nn2cc(F)cnc12
A. > 100 µM

Q. Query TGI for COc1cc(S(=O)(=O)Nc2ccc(-c3csc(N4C(=O)C(Cl)C4c4cccs4)n3)cc2)ccc1Cl (centres undefined)
A. > 100 µM

Next:
Q. Query TGI for CCOc1cc(-c2nc3cc(F)ccc3s2)ccc1O
A. 36 µM

Q. Query TGI for COC(=O)N/N=C(\C)C(CN(C)C)C(c1ccccc1)c1c(O)c2ccccc2oc1=O (centres undefined)
A. > 100 µM

Q. Query TGI for Cc1cc(NS(=O)(=O)c2ccc(Nc3c4ccccc4nc4c(C(=O)NCCO)cccc34)cc2)no1
A. 62.7 µM

Q. Query TGI for Cc1ccc(C(=O)N/N=C2/C(=O)c3c4ccccc4cc4cccc2c34)cc1
A. > 84.3 µM

----------
- System: MDA-MB-435
Use one of these outcomes when replying: 1 (active), 0 (inactive)

Solved entries (count: 5):
Q. Hello, I am checking results. What call was entered for Nc1ccc(-c2ccc3ncc4ccc(=O)n(-c5cccc(C(F)(F)F)c5)c4c3c2)cn1 ?
A. 1

Q. Hello, I am checking results. What call was entered for COc1ccc(-c2n[nH]nc2-c2cc(OC)c3c(c2)OCO3)cc1 ?
A. 1

Q. Hello, I am checking results. What call was entered for O=C(Oc1ccccc1)C(Br)C(Br)c1ccccc1 (stereo not given) ?
A. 0

Q. Hello, I am checking results. What call was entered for COc1ccc2[nH]c(C(=O)OCc3ccc4cccc(O)c4n3)cc2c1 ?
A. 0

Q. Hello, I am checking results. What call was entered for COc1ccc2c(c1)O/C(=C\c1cccc(OCC(=O)Nc3nc(C)c(C)s3)c1)C2=O ?
A. 0

Next:
Q. Hello, I am checking results. What call was entered for Cn1cc(C2=C(c3ccccc3C(F)(F)F)C(=O)NC2=O)c2ccccc21 ?
A. 0

Q. Hello, I am checking results. What call was entered for C[C@H](NC(=O)c1c(C(F)F)nn(C)c1Oc1cccc(C(F)(F)F)c1)c1ccc(C(=O)O)cc1 ?
A. 0

Q. Hello, I am checking results. What call was entered for COc1cc(NC(C)CCCNC(C)C)c2ncccc2c1OC (stereo not given) ?
A. 0

Q. Hello, I am checking results. What call was entered for C=C(CN1c2ccccc2Sc2ccccc21)c1ccc(C(=O)Nc2ccccc2N)cc1 ?
A. 0

Q. Hello, I am checking results. What call was entered for Cc1c(C)c2c(c(C)c1OCC(=O)O)CC[C@@](C)(CCC[C@@H](C)CCC[C@@H](C)CCCC(C)C)O2 ?
A. 0

----------
TGI reference
- System: MOLT-4 leukemia
- protocol_description: NCI tumour cell line growth inhibition, 48 h

Q. Find the measured TGI of OC12c3ccccc3C1CCCCCC21OCCCO1 (stereo not given) with MOLT-4 leukemia as test system.
A. > 100 µM

----------
- Test system: ACHN renal
- protocol_description: NCI tumour cell line growth inhibition, 48 h
property_measured: TGI

Study these solved cases before continuing.
Q. Query TGI for COc1ccccc1C1C(C#N)=C(N)Oc2cc(O)ccc21 (stereo not drawn)
A. 84 µM

Q. Query TGI for COC(=O)CNC(=O)CCC(C)[C@H]1CCC2C3C(C[C@H](OC(C)=O)[C@@]21C)[C@@]1(C)CCC2(C[C@H]1C[C@H]3OC(C)=O)OOC1(CCCCC1)OO2 (stereo partly drawn)
A. 3.85 µM

Next:
Q. Query TGI for COc1cc(S(=O)(=O)Nc2ccc(-c3csc(N4C(=O)C(Cl)C4c4cccs4)n3)cc2)ccc1Cl (stereo not drawn)
A. > 100 µM

Q. Query TGI for COC(=O)C1(O)C(c2ccccc2)NC2(C)CCCC21 (stereo not drawn)
A. > 100 µM

Q. Query TGI for Clc1ccc(OCc2nnc3n2N=C(c2ccccc2)CS3)c(Cl)c1
A. > 100 µM

Q. Query TGI for CCC[CH2][Sn]([CH2]CCC)([CH2]CCC)[O]C(=O)C(OC)c1ccccc1 (stereo not drawn)
A. 0.257 µM

Q. Query TGI for CC1=C(C(=O)Nc2ccccc2)C(c2cc(Cl)cc(Cl)c2)C(C(=O)Nc2ccccc2)=C(C)N1
A. 47.2 µM

----------
- System: SR leukemia
- protocol_description: NCI tumour cell line growth inhibition, 48 h
property_measured: TGI (µM)
Output spec: scalar in µM, unitless text.

Q. Find the measured TGI of CC1=C(C(=O)Nc2ccccc2)C(c2cc(Cl)cc(Cl)c2)C(C(=O)Nc2ccccc2)=C(C)N1 with SR leukemia as test system.
A. 12.6

Next:
Q. Find the measured TGI of COc1ccccc1C1C(C#N)=C(N)Oc2cc(O)ccc21 (stereo not given) with SR leukemia as test system.
A. 21.1

----------
- System: M19-MEL melanoma
- protocol_description: NCI tumour cell line growth inhibition, 48 h
property_measured: TGI (µM)
Output spec: scalar in µM, unitless text.

Study these solved cases before continuing.
Q. Find the measured TGI of COc1cc2c(c(OC)c1OC)-c1ccc(SC)c(=O)cc1C(CC(=O)Oc1cccc(F)c1)C2 (centres undefined) with M19-MEL melanoma as test system.
A. 16.2

Q. Find the measured TGI of COc1cc(C2c3cc4c(cc3[C@@H](N(C)c3ccc(N(C)C)cc3)C3COC(=O)C23)OCO4)cc(OC)c1O (some centres undefined) with M19-MEL melanoma as test system.
A. 12.1

Q. Find the measured TGI of COc1cccc2nc3c(C(=O)NCCN(C)C)cccc3nc12 with M19-MEL melanoma as test system.
A. 22

Next:
Q. Find the measured TGI of CC1=C(C(=O)Nc2ccccc2)C(c2cc(Cl)cc(Cl)c2)C(C(=O)Nc2ccccc2)=C(C)N1 with M19-MEL melanoma as test system.
A. 26.4

----------
- Test system: SNB-19 CNS
- protocol_description: NCI tumour cell line growth inhibition, 48 h
property_measured: log10 TGI (log10 of the value in µM)
Each number you see is log10 of TGI, and the unit inside the log is µM.

Study these solved cases before continuing.
Q. Query log10 TGI for O=C1C=C(Nc2ccc(S(=O)(=O)Nc3ncccn3)cc2)c2ccccc2C1=O
A. 1.96

Q. Query log10 TGI for CC(=O)NC1C(OCc2ccccc2)OC(CO)C(O)C1OCC(=O)N[C@@H](C)C(=O)N[C@H](CCC(=O)NCCNc1ccc([N+](=O)[O-])c2[nH]c3ccccc3c(=O)c12)C(N)=O (stereo partly drawn)
A. 1.97

Q. Query log10 TGI for O=C1C(Cl)=C(NCCF)C(=O)c2ncccc21
A. 0.48

Q. Query log10 TGI for CCC[CH2][Sn]([CH2]CCC)([CH2]CCC)[O]C(=O)C(OC)c1ccccc1 (stereo not drawn)
A. -0.52

Q. Query log10 TGI for COc1cc2nc(-c3cccc4cccnc34)nc(NC3CCN(Cc4ccccc4)CC3)c2cc1OC
A. 0.50

Next:
Q. Query log10 TGI for N#Cc1c(-c2ccc([N+](=O)[O-])cc2)cc(-c2ccc(Nc3ccnc4cc(Cl)ccc34)cc2)nc1N
A. 1.68

Q. Query log10 TGI for COC(=O)CNC(=O)CCC(C)[C@H]1CCC2C3C(C[C@H](OC(C)=O)[C@@]21C)[C@@]1(C)CCC2(C[C@H]1C[C@H]3OC(C)=O)OOC1(CCCCC1)OO2 (stereo partly drawn)
A. 1.25

Q. Query log10 TGI for COc1cc(C2c3cc4c(cc3[C@@H](N(C)c3ccc(N(C)C)cc3)C3COC(=O)C23)OCO4)cc(OC)c1O (stereo partly drawn)
A. 1.63

----------
- System: SF-295 CNS
- protocol_description: NCI tumour cell line growth inhibition, 48 h
log10(TGI) reference
Each number you see is log10 of TGI, and the unit inside the log is µM.

Study these solved cases before continuing.
Q. Query log10(TGI) for CC12OC(C(=O)C13CCC3)C1C(=O)c3ccc4c(ccc5ccccc54)c3C(=O)C12 (stereo not drawn)
A. -1.21

Q. Query log10(TGI) for CC[n+]1c(/C=C/c2ccc(N(CCCl)CCCl)cc2)ccc2cc(I)ccc21
A. 0.76

Q. Query log10(TGI) for Nc1ccc(-c2ccc3ncc4ccc(=O)n(-c5cccc(C(F)(F)F)c5)c4c3c2)cn1
A. 0.08

Next:
Q. Query log10(TGI) for NC(N)=N/N=C/c1c(-c2cc([N+](=O)[O-])c(Cl)cc2Cl)nc2n1CCS2
A. 1.85

Q. Query log10(TGI) for CNCCCNc1c2ccccc2nc2cccc([N+](=O)[O-])c12
A. -1.55

Q. Query log10(TGI) for Cc1cn2c(/C=N/N=C(N)N)c(-c3ccncc3)nc2s1
A. 1.47
